Assay: Chiral plasma pharmacokinetics of MDMA and its phase I and II metabolites after controlled MDMA administration
Assay type: in vivo, human
Details: human, plasma, im, placebo+MDMA (125 mg), CYP2D6 IM, n=3, plasma; read-out: t1/2 S (converted)
Where a name gives a salt, the structure may show the parent alone.
measuredParameter: half-life (h)
The reply should be a number in h, with the unit left off.

Look up and state reported half-life for CNC(C)Cc1ccc(OC2OC(C(=O)O)C(O)C(O)C2O)c(OC)c1 (stereo not drawn) [S-HMMA glucuronide] 7.1

Look up and state reported half-life for CN[C@@H](C)Cc1ccc(OS(=O)(=O)O)c(OC)c1 [S-HMMA sulfate] 6.9

Look up and state reported half-life for CN[C@@H](C)Cc1ccc2c(c1)OCO2 5.1

====

Assay: Chiral plasma pharmacokinetics of MDMA and its phase I and II metabolites after controlled MDMA administration
Assay type: in vivo, human
Details: both sexes, human, plasma, oral, bupropion+MDMA (125 mg), CYP2D6 EM (EM/Bup), n=13, plasma; read-out: t1/2 S (converted)
Structures can show the parent of a compound that is named as a salt.
measuredParameter: half-life (h)
The reply should be a number in h, with the unit left off.

Look over these answered cases.
CNC(C)Cc1ccc(OC2OC(C(=O)O)C(O)C(O)C2O)c(OC)c1 (stereo not drawn) [S-HMMA glucuronide] : 9
CN[C@@H](C)Cc1ccc(OS(=O)(=O)O)c(OC)c1 [S-HMMA sulfate] : 11.1
CN[C@@H](C)Cc1ccc2c(c1)OCO2 : 5.7

Look up and state reported half-life for CN[C@@H](C)Cc1ccc(O)c(OS(=O)(=O)O)c1 [S-DHMA 3-sulfate] 11.3

Look up and state reported half-life for CC(N)Cc1ccc2c(c1)OCO2 (stereo not drawn) 11.1

Look up and state reported half-life for CN[C@@H](C)Cc1ccc(OS(=O)(=O)O)c(O)c1 [S-DHMA 4-sulfate] 14.3

====

Test: Chiral plasma pharmacokinetics of MDMA and its phase I and II metabolites after controlled MDMA administration
Type: in vivo, human
Conditions: bupropion-pretreated CYP2D6 EMs
Structures can show the parent of a compound that is named as a salt.
measuredParameter: tonset (time of first detection), mean
Note: state the figure and append the unit.

Look over these answered cases.
CN[C@@H](C)Cc1ccc(OS(=O)(=O)O)c(OC)c1 [S-HMMA sulfate] : 0.56 h
CNC(C)Cc1ccc(OC2OC(C(=O)O)C(O)C(O)C2O)c(OC)c1 (stereo not shown) [R-HMMA glucuronide] : 0.73 h
CNC(C)Cc1ccc(OC2OC(C(=O)O)C(O)C(O)C2O)c(OC)c1 (stereo not shown) [S-HMMA glucuronide] : 0.71 h

Look up and state reported tonset (time of first detection), mean for CN[C@H](C)Cc1ccc(OS(=O)(=O)O)c(OC)c1 [R-HMMA sulfate] 0.53 h

====

Assay: Chiral plasma pharmacokinetics of MDMA and its phase I and II metabolites after controlled MDMA administration
Type: in vivo, human
Details: placebo+MDMA (125 mg), CYP2D6 EM, n=13, plasma
Structures can show the parent of a compound that is named as a salt.
measuredParameter: AUCtotal S

Look over these answered cases.
CN[C@@H](C)Cc1ccc2c(c1)OCO2 : 5.1 (1.5) μmol/l*h-1
CC(N)Cc1ccc2c(c1)OCO2 (stereo not drawn) : 0.76 (0.27) μmol/l*h-1
CNC(C)Cc1ccc(OC2OC(C(=O)O)C(O)C(O)C2O)c(OC)c1 (stereo not drawn) [S-HMMA glucuronide] : 5.5 (3.9) μmol/l*h-1

Look up and state reported AUCtotal S for CN[C@@H](C)Cc1ccc(OS(=O)(=O)O)c(O)c1 [S-DHMA 4-sulfate] 0.80 (0.37) μmol/l*h-1

Look up and state reported AUCtotal S for CN[C@@H](C)Cc1ccc(O)c(OS(=O)(=O)O)c1 [S-DHMA 3-sulfate] 7.1 (3.1) μmol/l*h-1

Look up and state reported AUCtotal S for CN[C@@H](C)Cc1ccc(OS(=O)(=O)O)c(OC)c1 [S-HMMA sulfate] 4.6 (1.2) μmol/l*h-1

====

Assay: Chiral plasma pharmacokinetics of MDMA and its phase I and II metabolites after controlled MDMA administration
Assay type: in vivo, human
Conditions: bupropion-pretreated EMs
Structures can show the parent of a compound that is named as a salt.
measuredParameter: metabolite/MDMA ratio, mean constant (after approximately 2 h)
Write the value as a bare number.

CN[C@@H](C)Cc1ccc(OS(=O)(=O)O)c(O)c1 [S-DHMA 4-sulfate] : 0.04
CN[C@H](C)Cc1ccc(O)c(OS(=O)(=O)O)c1 [R-DHMA 3-sulfate] : 0.10
CNC(C)Cc1ccc(OC2OC(C(=O)O)C(O)C(O)C2O)c(OC)c1 (centres unmarked) [R-HMMA glucuronide] : 0.05
CNC(C)Cc1ccc(OC2OC(C(=O)O)C(O)C(O)C2O)c(OC)c1 (centres unmarked) [S-HMMA glucuronide] : 0.20
CN[C@H](C)Cc1ccc(OS(=O)(=O)O)c(OC)c1 [R-HMMA sulfate] : 0.13

Look up and state reported metabolite/MDMA ratio, mean constant (after approximately 2 h) for CN[C@@H](C)Cc1ccc(OS(=O)(=O)O)c(OC)c1 [S-HMMA sulfate] 0.21

Look up and state reported metabolite/MDMA ratio, mean constant (after approximately 2 h) for CN[C@@H](C)Cc1ccc(O)c(OS(=O)(=O)O)c1 [S-DHMA 3-sulfate] 0.34

Look up and state reported metabolite/MDMA ratio, mean constant (after approximately 2 h) for CN[C@H](C)Cc1ccc(OS(=O)(=O)O)c(O)c1 [R-DHMA 4-sulfate] 0.05

====

Assay: Chiral plasma pharmacokinetics of MDMA and its phase I and II metabolites after controlled MDMA administration
Type: in vivo, human
Details: placebo-pretreated EMs, same-configuration MDMA enantiomer
Protocol: Blood plasma samples were analyzed non-stereoselectively as reported previously and reanalyzed for the present report using liquid chromatography-mass spectrometry/mass spectrometry after chiral derivatization with Marfey’s reagent as described previously. The method was fully validated, including selectivity, recovery, matrix effects, bias and imprecision, stability, and limit of quantification.
Structures can show the parent of a compound that is named as a salt.
Decision: metabolite/MDMA ratio, mean initial (highest, first hour) compared against 5; not below it gives fulfilled, below it gives not fulfilled.

Check out these entries, answers already filled in.
CNC(C)Cc1ccc(OC2OC(C(=O)O)C(O)C(O)C2O)c(OC)c1 (centres unmarked) [R-HMMA glucuronide] : not fulfilled
CN[C@H](C)Cc1ccc(O)c(OS(=O)(=O)O)c1 [R-DHMA 3-sulfate] : fulfilled
CN[C@@H](C)Cc1ccc(OS(=O)(=O)O)c(O)c1 [S-DHMA 4-sulfate] : not fulfilled
CN[C@@H](C)Cc1ccc(O)c(OS(=O)(=O)O)c1 [S-DHMA 3-sulfate] : fulfilled

Decide: is the reported value of metabolite/MDMA ratio, mean initial (highest, first hour) for CNC(C)Cc1ccc(OC2OC(C(=O)O)C(O)C(O)C2O)c(OC)c1 (centres unmarked) [S-HMMA glucuronide] equal to or greater than 5? fulfilled

Decide: is the reported value of metabolite/MDMA ratio, mean initial (highest, first hour) for CN[C@H](C)Cc1ccc(OS(=O)(=O)O)c(OC)c1 [R-HMMA sulfate] equal to or greater than 5? fulfilled

Decide: is the reported value of metabolite/MDMA ratio, mean initial (highest, first hour) for CN[C@@H](C)Cc1ccc(OS(=O)(=O)O)c(OC)c1 [S-HMMA sulfate] equal to or greater than 5? fulfilled

====

Assay: Chiral plasma pharmacokinetics of MDMA and its phase I and II metabolites after controlled MDMA administration
Format: in vivo, human
Details: both sexes, human, plasma, oral, placebo+MDMA (125 mg), CYP2D6 EM, n=13, plasma; read-out: Cmax R
Decision: Cmax compared against 200 nM; not below it gives Satisfied, below it gives Not satisfied.

CC(N)Cc1ccc2c(c1)OCO2 (stereo not drawn) [R-MDA, 3,4-methylenedioxyamphetamine] : Not satisfied

Now examine the next entry.
Decide: is the reported value of Cmax for CNC(C)Cc1ccc(OC2OC(C(=O)O)C(O)C(O)C2O)c(OC)c1 (stereo not drawn) [R-HMMA glucuronide] equal to or greater than 200 nM? Satisfied

====

Test: Chiral plasma pharmacokinetics of MDMA and its phase I and II metabolites after controlled MDMA administration
Type: in vivo, human
Conditions: human, plasma, im, placebo+MDMA (125 mg), CYP2D6 IM, n=3, plasma; read-out: Cmax S
measuredParameter: Cmax
Note: state the figure and append the unit.

CC(N)Cc1ccc2c(c1)OCO2 (stereo not drawn) : 42 nM

// switching to the query compound
Look up and state reported Cmax for CN[C@@H](C)Cc1ccc(OS(=O)(=O)O)c(O)c1 [S-DHMA 4-sulfate] 29 nM

====

Measured half-life by item
Experiment: Chiral plasma pharmacokinetics of MDMA and its phase I and II metabolites after controlled MDMA administration
Format: in vivo, human
Settings: both sexes, human, plasma, oral, 125 mg, placebo+MDMA (125 mg), CYP2D6 EM, n=13, plasma; read-out: t1/2 S (converted)
Experimental: Blood plasma samples were analyzed non-stereoselectively as reported previously and reanalyzed for the present report using liquid chromatography-mass spectrometry/mass spectrometry after chiral derivatization with Marfey’s reagent as described previously. The method was fully validated, including selectivity, recovery, matrix effects, bias and imprecision, stability, and limit of quantification.
The reply should be a number in h, with the unit left off.

CNC(C)Cc1ccc(OC2OC(C(=O)O)C(O)C(O)C2O)c(OC)c1 (stereo not drawn) [S-HMMA glucuronide] : 6.1

Look up and state reported half-life for CN[C@@H](C)Cc1ccc(OS(=O)(=O)O)c(O)c1 [S-DHMA 4-sulfate] 8.1
